experimentalTarget: PI3Kδ (p110δ/p85α) Recombinant Human Protein (Homo sapiens (Human), UniProt O00329)
Sequence (O00329 whole entry): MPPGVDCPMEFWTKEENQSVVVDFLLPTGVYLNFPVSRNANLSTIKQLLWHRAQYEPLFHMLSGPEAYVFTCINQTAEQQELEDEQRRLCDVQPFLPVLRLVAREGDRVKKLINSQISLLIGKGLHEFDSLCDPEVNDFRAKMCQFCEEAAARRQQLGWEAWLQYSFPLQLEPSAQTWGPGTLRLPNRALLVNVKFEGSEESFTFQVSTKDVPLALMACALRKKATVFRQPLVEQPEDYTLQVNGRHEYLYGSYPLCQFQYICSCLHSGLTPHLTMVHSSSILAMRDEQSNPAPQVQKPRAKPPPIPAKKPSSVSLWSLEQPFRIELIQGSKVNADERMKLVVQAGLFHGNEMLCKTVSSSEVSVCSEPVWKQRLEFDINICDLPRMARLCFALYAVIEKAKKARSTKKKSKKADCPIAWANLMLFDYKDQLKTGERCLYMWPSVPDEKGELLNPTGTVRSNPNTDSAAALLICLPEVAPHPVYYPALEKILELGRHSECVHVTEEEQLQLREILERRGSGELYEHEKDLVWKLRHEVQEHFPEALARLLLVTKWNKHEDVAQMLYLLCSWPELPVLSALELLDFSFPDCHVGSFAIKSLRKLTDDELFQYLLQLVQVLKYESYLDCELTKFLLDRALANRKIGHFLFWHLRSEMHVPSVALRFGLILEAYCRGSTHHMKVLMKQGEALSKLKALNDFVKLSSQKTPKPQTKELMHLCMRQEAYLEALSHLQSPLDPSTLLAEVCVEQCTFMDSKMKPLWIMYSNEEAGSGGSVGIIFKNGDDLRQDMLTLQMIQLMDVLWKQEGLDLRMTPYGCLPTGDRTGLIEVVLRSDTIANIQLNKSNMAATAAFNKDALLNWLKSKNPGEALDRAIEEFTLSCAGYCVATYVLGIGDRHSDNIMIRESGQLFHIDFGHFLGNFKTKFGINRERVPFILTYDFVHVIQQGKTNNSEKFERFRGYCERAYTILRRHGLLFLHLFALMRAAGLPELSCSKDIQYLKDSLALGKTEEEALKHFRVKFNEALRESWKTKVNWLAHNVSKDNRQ
Sequence (P27986 whole entry partner): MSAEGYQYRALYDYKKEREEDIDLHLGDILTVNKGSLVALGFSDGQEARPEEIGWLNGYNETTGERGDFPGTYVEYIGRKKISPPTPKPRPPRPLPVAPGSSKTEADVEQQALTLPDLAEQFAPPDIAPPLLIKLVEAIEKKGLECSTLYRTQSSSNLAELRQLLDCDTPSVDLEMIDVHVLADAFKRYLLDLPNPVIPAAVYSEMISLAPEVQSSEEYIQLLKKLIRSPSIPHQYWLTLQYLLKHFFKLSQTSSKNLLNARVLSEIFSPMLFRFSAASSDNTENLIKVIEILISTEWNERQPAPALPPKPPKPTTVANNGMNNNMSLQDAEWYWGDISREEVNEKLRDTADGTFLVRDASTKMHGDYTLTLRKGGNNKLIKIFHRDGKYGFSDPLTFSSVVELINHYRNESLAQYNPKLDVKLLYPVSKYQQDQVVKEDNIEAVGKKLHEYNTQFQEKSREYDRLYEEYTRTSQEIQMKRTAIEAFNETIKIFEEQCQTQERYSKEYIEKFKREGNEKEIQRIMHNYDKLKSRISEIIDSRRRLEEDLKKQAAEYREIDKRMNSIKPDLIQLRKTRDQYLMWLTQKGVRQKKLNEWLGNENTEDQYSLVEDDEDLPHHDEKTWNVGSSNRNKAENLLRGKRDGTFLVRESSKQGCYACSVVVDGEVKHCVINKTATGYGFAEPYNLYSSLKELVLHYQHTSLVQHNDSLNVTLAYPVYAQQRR
assay: PI3Kδ Scintillation Proximity Assay
assayContext: read-out: PI3K-delta SPA IC50
Structures can show the parent of a compound that is named as a salt.
reportedMetric: IC50

Cc1nc(-c2cc(-c3cncc(C4=CCN(C(=O)OC(C)(C)C)C4)c3)ccn2)[nH]c1C	> 500 nM

Lookup: Quick one: IC50 for CS(=O)(=O)c1cncc(-c2ccnc(-c3ncc(Cc4ccccc4)[nH]3)c2)c1 [Example 115, trifluoroacetate salt] ?
Found: ≤ 50 nM

Lookup: Do the same for Cc1nc(-c2cc(-c3cncc(C(=O)NCCCN(C)C)c3)ccn2)[nH]c1C please
Found: > 500 nM

Lookup: Ok, now CCS(=O)(=O)Nc1cncc(-c2ccnc(-c3ncc(-c4ccccc4)[nH]3)c2)c1 [Example 130, Trifluoroacetate Salt]
Found: ≤ 50 nM

Lookup: Lookup CCNc1ncc(-c2cc(-c3cncc(OC)c3)ccn2)[nH]1 [Example 62, Trifluoroacetate Salt]
Found: > 500 nM

Lookup: Also Cc1nc(-c2cc(-c3cncc(C(=O)NC4CCOCC4)c3)ccn2)[nH]c1C [Example 160, trifluoroacetate salt] , if possible.
Found: ≤ 500 nM

Lookup: Please do the same for Cc1nc(-c2cc(-c3cncc(C(=O)N4CCC(F)(F)C4)c3)ccn2)[nH]c1C [Example 173, trifluoroacetate salt] as well.
Found: ≤ 50 nM

Lookup: Likewise for Clc1ccc(Cn2cc(-c3ccnc(-c4ncc(-c5ccccc5)[nH]4)c3)cn2)cc1 [Example 1, Trifluoroacetate Salt] ?
Found: > 500 nM

Lookup: Now try Cc1[nH]c(-c2cc(-c3cncc(N4CCOCC4)c3)ccn2)nc1C(=O)N1CC(NC(=O)OC(C)(C)C)C1 .
Found: ≤ 50 nM

* * *

Listed next: entries and their corresponding pIC50.
experimentalTarget: PI3Kδ (p110δ/p85α) Recombinant Human Protein (Homo sapiens (Human), UniProt O00329)
assay: PI3Kδ Scintillation Proximity Assay
assayContext: read-out: PI3K-delta SPA IC50
pIC50: −log10 of the molar value. Structures can show the parent of a compound that is named as a salt.

// solved cases for pIC50 follow
Cc1[nH]c(-c2cc(-c3cnn(Cc4ccc(Cl)cc4)c3)ccn2)nc1C(=O)N[C@H]1CCOC1	≥ 6.30
COCCN(C)C(=O)c1cncc(-c2ccnc(-c3nc(C)c(C)[nH]3)c2)c1 [Example 204, trifluoroacetate salt]	≥ 7.30

Lookup: Dear colleague, I am looking for the recorded pIC50 of the following compound: CNC(=O)CCn1cc(-c2ccnc(-c3ncc(-c4ccccc4)[nH]3)c2)cn1 [Example 58, trifluoroacetate salt]
Found: < 6.30

Lookup: Also, Cc1nc(-c2cc(-c3cncc(C(=O)NCC4CCC4)c3)ccn2)[nH]c1C [Example 206, trifluoroacetate salt] please.
Found: ≥ 7.00

* * *

experimentalTarget: PI3Kδ (p110δ/p85α) Recombinant Human Protein (Homo sapiens (Human))
assay: PI3Kδ Scintillation Proximity Assay
Format: biochemical
assayContext: read-out: PI3K-delta SPA IC50
Text: Example C. PI3Kδ Scintillation Proximity Assay [γ-^33P]ATP (10 mCi/mL) and Wheat Germ Agglutinin (WGA) YSi SPA Scintillation Beads was purchased from Perkin-Elmer (Waltham, Mass.). Lipid kinase substrate, D-myo-Phosphatidylinositol 4,5-bisphosphate (PtdIns(4,5)P2)D (+)-sn-1,2-di-O-octanoylglyceryl, 3-O-phospho linked (PIP2), CAS 204858-53-7, was purchased from Echelon Biosciences (Salt Lake City, Utah). PI3Kδ (p110δ/p85α) Recombinant Human Protein was purchased from Eurofins (St Charles, Mo.). […]
pIC50: −log10 of the molar value. Structures can show the parent of a compound that is named as a salt.
The reader will find reported pIC50 values listed item by item below.

Lookup: Endpoint output: pIC50 of Cc1nc(-c2cc(-c3cncc(C(=O)N[C@@H](C)c4ccccc4)c3)ccn2)[nH]c1C [Example 195, trifluoroacetate salt] . Value?
Found: ≥ 6.30

Lookup: Cc1[nH]c(-c2cc(-c3cncc(S(C)(=O)=O)c3)ccn2)nc1C(=O)NC(C)C [Example 253, trifluoroacetate salt] ?
Found: ≥ 7.30

Lookup: Same again, this time with Cc1[nH]c(-c2cc(-c3cncc(N4CCOCC4)c3)ccn2)nc1C(=O)NC1CCSCC1 [Example 281, trifluoroacetate salt]
Found: ≥ 7.30

Lookup: What do you get for Cc1[nH]c(-c2cc(-c3cncc(N4CCOCC4)c3)ccn2)nc1C(=O)N[C@H](C)c1ccccc1 [Example 274, trifluoroacetate salt] ?
Found: ≥ 7.30

Lookup: Next record, please: Cc1nc(-c2cc(-c3cncc(C(=O)N4CCC(C#N)C4)c3)ccn2)[nH]c1C (racemic) [Example 183, trifluoroacetate salt]
Found: ≥ 7.30

Lookup: Field entry: Cc1[nH]c(-c2cc(-c3cncc(S(C)(=O)=O)c3)ccn2)nc1C(=O)NC1CCOCC1 [Example 254, trifluoroacetate salt]
Found: ≥ 7.30
